Test system: SN12C renal
Test: NCI-60 one-dose screen, 48 h (100 = growth as untreated, 0 = no growth, -100 = all killed)
Conditions: 10 µM unless noted
The panel holds about 83,000 compounds, 20% with a hit somewhere; the sample as a whole holds those more often.
Assign growth to each entry below.
Numbers only, in %.

Some solved cases for reference:
| COMPOUND | QUANTITY | READING_UNIT | VALUE_REPORTED |
| --- | --- | --- | --- |
| O=c1ccn(C2OC(CO)C(O)C2F)c(=O)[nH]1 (stereo unspecified) | growth | % | 102 |
| CCOC(=O)c1c(NC(=O)C2CCCCC2C(=O)O)sc2c1CCCC2 (stereo unspecified) | growth | % | 104 |
| CCCn1cnc2c1c(=O)n(CCCCC(C)=O)c(=O)n2C | growth | % | 124 |

Hi there! I need growth for each item below, if you can.
1. Nc1ccc(C2=NN(c3ccccc3)C(c3ccc(Cl)cc3)C2)cc1 (stereo unspecified)
2. O=C1OC(c2ccc(-c3ccccc3)cc2)=C/C1=C/c1cccs1
3. Clc1ccc(-c2nc(-c3cccs3)no2)c(Cl)c1
4. CCOC(Cc1c(N)[nH]c(=S)[nH]c1=O)OCC
5. CCN1C[C@@H](C)n2c(c(O)c3c(=O)n(Cc4ccc(F)c(Cl)c4)nc(C(=O)NC)c32)C1=O
6. Cc1cc(C(C)(C)c2cc(C)c(O)c(CN(C)C)c2)cc(CN(C)C)c1O

1. 76.9
2. 80.9
3. 101
4. 110
5. 9.18
6. 96.3

Hi there! I need growth for each item below, if you can.
1. Cc1nc2cc(NC(=O)CN3CCN(CCN4C(=O)c5cccc6cccc(c56)C4=O)CC3)ccc2s1
2. Oc1[nH]c2ccc(Cl)cc2c1/C=c1/ccc2c(c1)N=C(c1ccc(C(F)(F)F)cc1)N=2

1: 39.8; 2: 88.3

###

System: HCT-116 colon
Assay: NCI-60 one-dose screen, 48 h
Conditions: 10 µM unless noted
Method: Growth inhibition of the HCT-116 human tumor cell line is measured as a screen for anti-cancer activity. Cells are grown in 96 well plates and exposed to the test compound for 48 hours. Compounds are tested at a single concentration, which is 10^-5 M for most compounds. The reported endpoint is percent growth (GI% or GIPRCNT), where numbers from 0 - 100% represent growth inhibition, and numbers from -100% - 0 represent cell death. For example, a value of 40 represents 60% growth inhibition. […]
Compounds without any hit were thinned out: in the full panel of roughly 83,000, 20% have a hit. Active and inactive are the calls of the source. How the source made its calls: active means growth percent below 10; inactive means the rest.
Permitted responses: active, inactive

Would you please look over these solved cases?
| COMPOUND | TARGET_UNDER_TEST | CLASS |
| --- | --- | --- |
| Cn1c(=O)c2c(nc(Br)n2CCC(=O)Nc2ccc(F)cc2)n(C)c1=O | HCT-116 colon | inactive |
| CCCCCCCCCCCCCCCCN=C(CC(=O)O)C(=O)O | HCT-116 colon | inactive |
| COc1ccc(-c2cc(Cc3cccs3)c(=O)n(Cn3ccc4ccccc43)n2)cc1 | HCT-116 colon | inactive |
| OC(c1cc(C(F)(F)F)nc2c(C(F)(F)F)cccc12)C1CCCCN1 (stereo not given) | HCT-116 colon | inactive |

I would be grateful if you could indicate the recorded call for `O=C(Nc1ccc(OCc2nnc(-c3ccccc3)o2)c(F)c1)Nc1ccc(Cl)c(C(F)(F)F)c1` . active

These data points were gathered from PubChem BioAssay (NCI).
